These measurements were taken from ChEMBL document CHEMBL1770050.

- Tested on: Nucleic Acid
- test summary: Binding affinity to Sheared herring sperm DNA assessed as remaining displaced EtBr by fluorescent intercalator displacement assay
- Assay type: nucleic-acid assay
- Parameters: concentration or dose not given beside the values
metric: Activity (%)

Solved cases (2 shown):
CC(C)N[C@H]1CC[C@H](OCC#Cc2c(-c3ccccc3)oc3ccccc23)O[C@H]1C	79
C[C@@H]1O[C@@H](OCC#Cc2c(-c3ccccc3)oc3ccccc23)CC[C@@H]1N	68.5

a: CCN[C@H]1CC[C@H](OCC#Cc2c(-c3ccccc3)oc3ccccc23)O[C@H]1C
b: C[C@H](N)C(=O)N[C@H]1CC[C@H](OCC#Cc2c(-c3ccccc3)oc3ccccc23)O[C@H]1C
c: CC(=O)N[C@H]1CC[C@H](OCC#Cc2c(-c3ccccc3)oc3ccccc23)O[C@H]1C
Could you please sort these 3 entries by Activity from high to low? Submit the labels in the order that the ranking request calls for.
c, b, a
(c: 98.6%, b: 52.9%, a: 26%)
